All values here come from PubChem BioAssay (EPA / NIEHS).

- Read-out: Cytochrome P450 2B6 (Homo sapiens) (UniProt P20813)
- METHOD_SUMMARY: CLD_CYP2B6_48hr: CellzDirect (CLD) Gene Expression Assay for xenobiotic metabolism (CYP2B6) at 48 hours (AID 2283699);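 further: actives raise transcript level above DMSO so potency reflects induction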
Results filed as inconclusive are left out. Activity calls are given as the source filed them. How the source made its calls: active means hit-call score of the fitted dose curve at least 0.9, where 1 is the maximum; inconclusive means response in the unintended direction; inactive means score below 0.9.
Hi there, I'd appreciate the recorded AC50 for every entry that follows.

Look over these answered cases.
COMPOUND	AC50
CSC1=N[C@@](C)(c2ccccc2)C(=O)N1Nc1ccccc1	1160 nM (active)
C[Si](Cn1cncn1)(c1ccc(F)cc1)c1ccc(F)cc1	51 nM (active)

Would you mind giving AC50 for every compound in the list below?
1. FC(F)C(F)(F)OCC(Cn1cncn1)c1ccc(Cl)cc1Cl (stereo unspecified)
2. CCOP(=S)(OCC)Oc1ccc2c(C)c(Cl)c(=O)oc2c1

Output line:
1. 321 nM (active)
2. 1010 nM (active)

Input line: Look up AC50: CCOP(=S)(OCC)OC(Cl)C(Cl)(Cl)Cl (stereo unspecified)
Output line: 13.5 nM (active)

---

- Read-out: ABC Transporter (ABCB1), ABCB1 (gene 5243)
- METHOD_SUMMARY: CLD_ABCB1_24hr: CellzDirect (CLD) Gene Expression Assay for ABC Transporter (ABCB1) at 24 hours (AID 2283684)
Records with an inconclusive call do not appear. Active and inactive are the calls of the source. Rule for the calls: active = hit-call score of the fitted dose curve at least 0.9, where 1 is the maximum; inconclusive = response in the unintended direction; inactive = score below 0.9.
Bench note: report the call from Yes (active), No (inactive)

MOLECULE	GROUP
CCCCOC(=O)[C@@H](C)Oc1ccc(Oc2ccc(C#N)cc2F)cc1	No
CCC(=NOC/C=C/Cl)C1=C(O)CC(C2CCOCC2)CC1=O (stereo unspecified)	No
COc1cc(OC)nc(Sc2cccc(Cl)c2C(=O)O)n1	No
CCOP(=S)(OCC)OC(Cl)C(Cl)(Cl)Cl (stereo unspecified)	No
CCOP(=S)(OCC)Oc1cc(C)nc(C(C)C)n1	No
CCOP(=S)(Oc1cnc(C(C)(C)C)nc1)OC(C)C (stereo unspecified)	No
CCCSP(=O)(OCC)Oc1ccc(Br)cc1Cl (stereo unspecified)	No
CN(C)C(=O)Nc1cccc(C(F)(F)F)c1	No
CC(C)N(C(=O)SCC(Cl)=C(Cl)Cl)C(C)C	Yes
CC1=NNC(=O)N(/N=C/c2cccnc2)C1	No

Input line: Could you check what this test reported for CON=C(C(=O)OC)c1ccccc1CON=C(C)c1cccc(C(F)(F)F)c1 ?
Output line: No

Input line: Same thing, different molecule: CC(C1CC1)C(O)(Cn1cncn1)c1ccc(Cl)cc1 (stereo unspecified)
Output line: No

Input line: Same thing, different molecule: CC(C)[C@H](C(=O)O[C@H](C#N)c1cccc(Oc2ccccc2)c1)c1ccc(Cl)cc1
Output line: No

Input line: Same thing, different molecule: CC1(C(=O)Nc2ccc(O)c(Cl)c2Cl)CCCCC1
Output line: No

Input line: Same thing, different molecule: CNc1cnn(-c2cccc(C(F)(F)F)c2)c(=O)c1Cl
Output line: No

Input line: Same thing, different molecule: COP(=O)(NC(C)=O)SC (stereo unspecified)
Output line: No

---

- SYSTEM_UNDER_TEST: human Peripheral-type Benzodiazepine Receptor (PBR), TSPO (gene 706)
- METHOD_SUMMARY: NVS_MP_hPBR: NovaScreen (NVS) Membrane Protein Assay for human Peripheral-type Benzodiazepine Receptor (PBR) (AID 2283331);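 further: hits reduce radioligand binding relative to DMSO baseline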
Results filed as inconclusive are left out. Activity calls are given as the source filed them. How the source made its calls: active means hit-call score of the fitted dose curve at least 0.9, where 1 is the maximum; inconclusive means response in the unintended direction; inactive means score below 0.9.
Bench note: report the call from active, inactive

Here's what some known entries look like.
COMPOUND	GROUP
CCOC(=O)CC(SP(=O)(OC)OC)C(=O)OCC (configuration not stated)	inactive
CCOP(=O)(OCC)Oc1cc(C)nc(C(C)C)n1	inactive
CCOP(=S)(OCC)Oc1cc(C)nc(C(C)C)n1	inactive
COP(=O)(NC(C)=O)SC (configuration not stated)	inactive
FC(F)C(F)(F)OCC(Cn1cncn1)c1ccc(Cl)cc1Cl (configuration not stated)	active
CCC(=O)Nc1ccc(Cl)c(Cl)c1	active

Attention now shifts to the item below.
Input line: Could you check what this test reported for CCc1cccc(CC)c1N(COC)C(=O)CCl ?
Output line: active

---

- Read-out: E-selectin (Homo sapiens) (UniProt P16581)
- Sequence (P16581 whole entry, looked up): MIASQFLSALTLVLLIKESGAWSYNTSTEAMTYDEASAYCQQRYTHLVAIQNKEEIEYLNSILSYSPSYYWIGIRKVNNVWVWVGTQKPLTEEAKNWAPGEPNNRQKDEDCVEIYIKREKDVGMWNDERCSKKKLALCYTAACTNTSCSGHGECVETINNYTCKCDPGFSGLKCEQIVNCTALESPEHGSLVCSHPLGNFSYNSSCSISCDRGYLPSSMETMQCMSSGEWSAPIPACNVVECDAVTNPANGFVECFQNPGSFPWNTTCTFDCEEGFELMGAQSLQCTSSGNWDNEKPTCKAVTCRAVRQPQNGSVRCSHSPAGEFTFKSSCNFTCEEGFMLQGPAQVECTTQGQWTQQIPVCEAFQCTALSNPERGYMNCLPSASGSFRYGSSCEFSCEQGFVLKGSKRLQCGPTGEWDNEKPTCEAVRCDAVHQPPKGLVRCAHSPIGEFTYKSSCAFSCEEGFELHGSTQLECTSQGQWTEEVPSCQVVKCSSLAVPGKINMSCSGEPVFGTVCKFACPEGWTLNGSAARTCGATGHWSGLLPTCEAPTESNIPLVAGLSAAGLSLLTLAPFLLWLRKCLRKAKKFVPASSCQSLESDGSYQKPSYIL
- METHOD_SUMMARY: BSK_LPS_Eselectin: BioMAP Diversity Plus: LPS Assay for Eselectin Biomarker Activity (AID 2283077)
- ASSAY_SETUP: primary human HUVEC with PBMC; actives raise or lower the signal
Calls of active or inactive are those of the source. The calls were made as follows: active = hit-call score of the fitted dose curve at least 0.9, where 1 is the maximum; inactive = score below 0.9.
Bench note: report the call from active, inactive

Here's what some known entries look like.
COMPOUND	GROUP
CC1=NNC(=O)N(/N=C/c2cccnc2)C1	inactive
CC(Oc1cccc(Cl)c1)C(=O)O (configuration not stated)	inactive
COP(=O)(NC(C)=O)SC (configuration not stated)	inactive
Cc1ccn2nc(S(=O)(=O)Nc3c(F)cccc3F)nc2n1	inactive

Input line: Could you check what this test reported for CCc1cccc(CC)c1N(COC)C(=O)CCl ?
Output line: active

Input line: Same thing, different compound: CCOC(=O)CC(SP(=O)(OC)OC)C(=O)OCC (configuration not stated)
Output line: active

Input line: Same thing, different compound: CCNc1nc(Cl)nc(NC(C)(C)C#N)n1
Output line: inactive

Input line: Same thing, different compound: CC(=NC#N)N(C)Cc1ccc(Cl)nc1
Output line: inactive

Input line: Same thing, different compound: CCOC(=O)COc1cc(-c2nn(C)c(OC(F)F)c2Cl)c(F)cc1Cl
Output line: inactive

---

Hi there, I'd appreciate the recorded AC50 for every entry that follows.
- SYSTEM_UNDER_TEST: rat CYP2C11, Cyp2c11 (gene 29277) (UniProt P08683)
- Sequence (P08683 whole entry, looked up): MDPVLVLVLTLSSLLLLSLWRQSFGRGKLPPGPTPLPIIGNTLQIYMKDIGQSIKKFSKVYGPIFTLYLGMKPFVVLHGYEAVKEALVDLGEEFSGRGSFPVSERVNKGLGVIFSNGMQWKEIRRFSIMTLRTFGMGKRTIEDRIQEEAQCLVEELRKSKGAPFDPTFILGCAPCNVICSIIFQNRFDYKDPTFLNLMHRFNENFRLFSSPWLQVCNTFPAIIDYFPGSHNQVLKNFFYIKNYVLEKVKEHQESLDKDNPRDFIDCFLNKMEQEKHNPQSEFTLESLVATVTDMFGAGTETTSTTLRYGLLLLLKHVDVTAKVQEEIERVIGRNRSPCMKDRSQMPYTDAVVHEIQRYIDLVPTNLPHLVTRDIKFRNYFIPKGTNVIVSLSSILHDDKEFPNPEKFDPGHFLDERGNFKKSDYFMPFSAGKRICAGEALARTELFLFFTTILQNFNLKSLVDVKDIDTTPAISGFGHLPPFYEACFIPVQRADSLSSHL
- METHOD_SUMMARY: NVS_ADME_rCYP2C11: NovaScreen (NVS) CYP450-related Enzyme Activity (ADME) Assay for rat CYP2C11 (AID 2283118)
Activity calls are given as the source filed them. The calls were made as follows: active = hit-call score of the fitted dose curve at least 0.9, where 1 is the maximum; inconclusive = response in the unintended direction; inactive = score below 0.9.

MOLECULE	AC50
CCOC(=O)CC(SP(=O)(OC)OC)C(=O)OCC (stereo unspecified)	8.37 µM (active)

Would you mind giving AC50 for every molecule in the list below?
1. CCOP(=O)(NC(C)C)Oc1ccc(SC)c(C)c1 (stereo unspecified)
2. CCOP(=S)(OCC)Oc1ccc2c(C)c(Cl)c(=O)oc2c1
3. CCOP(=O)(SC(C)CC)N1CCSC1=O (stereo unspecified)
4. CCCSP(=O)(OCC)Oc1ccc(Br)cc1Cl (stereo unspecified)

Output line:
6.43 µM (active)
1.2 µM (active)
3.88 µM (active)
0.226 µM (active)

Input line: Look up AC50: CCCOCC(=Nc1ccc(Cl)cc1C(F)(F)F)n1ccnc1
Output line: 0.798 µM (active)

---

- METHOD_SUMMARY: Tanguay_ZF_120hpf_CIRC_legacy: (Legacy) Oregon State University Tanguay Lab 120 Hour Post-fertilization zebrafish Assay for Circulatory Malformation (AID 2283651)
Records with an inconclusive call do not appear. Activity calls are given as the source filed them. The calls were made as follows: active = hit-call score of the fitted dose curve at least 0.9, where 1 is the maximum; inconclusive = response in the unintended direction; inactive = score below 0.9.
Bench note: report the call from active, inactive

Here's what some known entries look like.
COMPOUND	GROUP
CCNc1nc(Cl)nc(NC(C)(C)C#N)n1	inactive
CNC(=O)ON=C(C)SC	inactive
CCC(CC)Nc1c([N+](=O)[O-])cc(C)c(C)c1[N+](=O)[O-]	inactive
COc1cccc(C(=O)NN(C(=O)c2cc(C)cc(C)c2)C(C)(C)C)c1C	inactive
CON=C(C(=O)OC)c1ccccc1CON=C(C)c1cccc(C(F)(F)F)c1	inactive

Input line: Could you check what this test reported for O=C(O)c1cc(Oc2ccc(C(F)(F)F)cc2Cl)ccc1[N+](=O)[O-] ?
Output line: inactive

Input line: Same thing, different compound: CCCSP(=O)(OCC)SCCC
Output line: inactive

Input line: Same thing, different compound: Cc1cc(C2CC2)nc(Nc2ccccc2)n1
Output line: inactive

Input line: Same thing, different compound: CCCCSP(=O)(SCCCC)SCCCC
Output line: inactive

Input line: Same thing, different compound: CCOP(=S)(OCC)SCCSCC
Output line: inactive

---

- SYSTEM_UNDER_TEST: guinea pig Opioid, Kappa 1 Receptor (OpiateK), OPRK1 (gene 100135587)
- METHOD_SUMMARY: NVS_GPCR_gOpiateK: NovaScreen (NVS) G Protein-Coupled Receptor Assay for guinea pig Opioid, Kappa 1 Receptor (OpiateK) (AID 2283252);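 further: radioligand displacement from kappa opioid receptor in guinea pig cerebellar membranes; active means reduced radioligand binding relative to DMSO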
Inconclusive results are not listed. The source made the active and inactive calls. Rule for the calls: active = hit-call score of the fitted dose curve at least 0.9, where 1 is the maximum; inconclusive = response in the unintended direction; inactive = score below 0.9.
Bench note: report the call from True (active), False (inactive)

COMPOUND	SYSTEM_UNDER_TEST	GROUP
C[Si](Cn1cncn1)(c1ccc(F)cc1)c1ccc(F)cc1	guinea pig Opioid, Kappa 1 Receptor (OpiateK), OPRK1 (gene 100135587)	True
CCc1cccc(C)c1N(C(=O)CCl)C(C)COC (centres undefined)	guinea pig Opioid, Kappa 1 Receptor (OpiateK), OPRK1 (gene 100135587)	True
COc1ccc(C(=CC(=O)N2CCOCC2)c2ccc(Cl)cc2)cc1OC	guinea pig Opioid, Kappa 1 Receptor (OpiateK), OPRK1 (gene 100135587)	False

Attention now shifts to the item below.
Input line: Could you check what this test reported for CC[C@H](C)[C@H]1O[C@]2(C=C[C@@H]1C)C[C@@H]1C[C@@H](C/C=C(\C)[C@@H](O[C@H]3C[C@H](OC)[C@@H](O[C@H]4C[C@H](OC)[C@@H](NC)[C@H](C)O4)[C@H](C)O3)[C@@H](C)/C=C/C=C3\CO[C@@H]4[C@H](O)C(C)=C[C@@H](C(=O)O1)[C@]34O)O2 ?
Output line: True
